Biological target: Cytochrome P450 11B1, mitochondrial (Homo sapiens)
Assay: Inhibition of human CYP11B1 expressed in hamster V79MZ cells using 11-deoxycorticosterone substrate
MEASURED METRIC: pIC50
Quick note: pIC50 means taking -log10 of the concentration in moles per liter.

{"MOL SMILES": "Cc1ccccc1Cn1ccnc1", "pIC50": 7.21}
{"MOL SMILES": "c1ccc2c(c1)ncn2CC12CC3CC(CC(C3)C1)C2", "pIC50": 7.12}
{"MOL SMILES": "Cc1ccc(Cn2cnc3ccccc32)cc1", "pIC50": 6.30}
{"MOL SMILES": "Cc1ccc(Cn2ccnc2)cc1", "pIC50": 6.59}
{"MOL SMILES": "c1ccc(C(CCn2ccnc2)(c2ccccc2)c2ccccc2)cc1", "pIC50": 7.10}

We now examine a further compound.
Lookup: What value of pIC50 has been reported for the following compound? Cc1cc(C)c(Cn2ccnc2)c(C)c1
Found: 7.62

* * *

Species: Homo sapiens
Assay: Selectivity index, ratio of IC50 for human CYP11B2 to IC50 for human CYP11B1
Checkbox rule: Ratio IC50 lower than 3 = 1.0; Ratio IC50 not lower than 3 = 0.0.

{"MOL SMILES": "Cc1cccc(Cn2ccnc2)c1", "DISCRETE LABEL": 1.0}

Lookup: Threshold test, Ratio IC50 < 3: c1ccc(C(CCn2ccnc2)(c2ccccc2)c2ccccc2)cc1
Found: 0.0

Lookup: Threshold test, Ratio IC50 < 3: Clc1ccc(Cn2cnc3ccccc32)cc1
Found: 1.0

Lookup: Threshold test, Ratio IC50 < 3: Cc1ccccc1Cn1cnc2ccccc21
Found: 1.0

Lookup: Threshold test, Ratio IC50 < 3: c1ccc(C(Cn2ccnc2)(c2ccccc2)c2ccccc2)cc1
Found: 1.0

Lookup: Threshold test, Ratio IC50 < 3: c1ccc(C(c2ccccc2)(c2ccccc2)n2ccnc2)cc1
Found: 0.0

Lookup: Threshold test, Ratio IC50 < 3: Clc1ccc(Cn2ccnc2)cc1
Found: 1.0

Lookup: Threshold test, Ratio IC50 < 3: c1ccc(-c2cc(Cn3ccnc3)cc(-c3ccccc3)c2)cc1
Found: 1.0

Lookup: Threshold test, Ratio IC50 < 3: c1ccc(-c2cccc(Cn3ccnc3)c2)cc1
Found: 0.0

Lookup: Threshold test, Ratio IC50 < 3: Cc1cccc(Cn2cnc3ccccc32)c1
Found: 1.0

Lookup: Threshold test, Ratio IC50 < 3: Cc1c(C)c(C)c(Cn2ccnc2)c(C)c1C
Found: 0.0

Lookup: Threshold test, Ratio IC50 < 3: c1cn(CC23CC4CC(CC(C4)C2)C3)cn1
Found: 0.0

Lookup: Threshold test, Ratio IC50 < 3: Cc1cc(C)cc(Cn2ccnc2)c1
Found: 1.0

Lookup: Threshold test, Ratio IC50 < 3: c1ccc(-c2ccccc2Cn2ccnc2)cc1
Found: 1.0

Lookup: Threshold test, Ratio IC50 < 3: Cc1ccc(Cn2ccnc2)cc1
Found: 1.0

Lookup: Threshold test, Ratio IC50 < 3: Cc1ccccc1Cn1ccnc1
Found: 1.0

Lookup: Threshold test, Ratio IC50 < 3: c1ccc(-c2ccc(Cn3ccnc3)o2)cc1
Found: 0.0

* * *

Molecular target: Cytochrome P450 11B1, mitochondrial (Homo sapiens)
Sequence (P15538 whole entry): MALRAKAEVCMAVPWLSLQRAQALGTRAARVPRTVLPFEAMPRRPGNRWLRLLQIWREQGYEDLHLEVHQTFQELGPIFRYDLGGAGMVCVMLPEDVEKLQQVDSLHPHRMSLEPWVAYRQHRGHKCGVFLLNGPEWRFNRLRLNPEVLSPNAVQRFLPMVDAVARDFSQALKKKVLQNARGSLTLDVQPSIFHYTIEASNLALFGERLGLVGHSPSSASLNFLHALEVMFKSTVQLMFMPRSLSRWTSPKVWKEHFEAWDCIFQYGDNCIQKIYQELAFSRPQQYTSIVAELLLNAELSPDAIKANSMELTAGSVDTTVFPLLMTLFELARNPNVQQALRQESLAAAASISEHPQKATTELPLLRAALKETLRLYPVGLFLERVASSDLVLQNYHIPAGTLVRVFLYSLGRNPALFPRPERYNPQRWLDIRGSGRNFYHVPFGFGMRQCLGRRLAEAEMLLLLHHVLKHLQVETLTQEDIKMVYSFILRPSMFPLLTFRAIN
Assay: Inhibition of human CYP11B1 expressed in hamster V79MZ cells using 11-deoxycorticosterone substrate
Each item that follows carries a reported pIC50.
Quick note: pIC50 means taking -log10 of the concentration in moles per liter.

Lookup: What value of pIC50 has been reported for the following molecule? c1ccc(-c2cc(Cn3ccnc3)cc(-c3ccccc3)c2)cc1
Found: 6.89

Lookup: What value of pIC50 has been reported for the following molecule? c1ccc(-c2cccc(Cn3cnc4ccccc43)c2)cc1
Found: 6.43

Lookup: What value of pIC50 has been reported for the following molecule? Cc1cccc(Cn2ccnc2)c1
Found: 7.32

Lookup: What value of pIC50 has been reported for the following molecule? c1ccc(-c2ccccc2Cn2ccnc2)cc1
Found: 7.82

Lookup: What value of pIC50 has been reported for the following molecule? c1ccc(-c2ccc(Cn3cnc4ccccc43)cc2)cc1
Found: 6.71

Lookup: What value of pIC50 has been reported for the following molecule? Clc1ccc(Cn2cnc3ccccc32)cc1
Found: 6.20

Lookup: What value of pIC50 has been reported for the following molecule? c1cn(CC23CC4CC(CC(C4)C2)C3)cn1
Found: 8.30

Lookup: What value of pIC50 has been reported for the following molecule? Cc1cc(C)cc(Cn2cnc3ccccc32)c1
Found: 6.73
